# STUDY_SYSTEM: pooled human IgG
ENDPOINT: Enzyme Activity Endpoint Assay (purified): Fc (ng/µL)
Entry rule: numbers only, all in ng/µL.

PROTEIN	SCALE_UNIT	MEASUREMENT
PRT-116 (protein) MRNATEAYNKATPTTITSVWTKGVTPPTPEQFRYNNEDVFHAPYKAHQGWYDITKTFNGKDNLLCGAATAGNMLHWWFDQNKTEIEAYLSKHPEKQKIIFNNQELFDLKAAIDTKDSQTNSQLFNYFRDKAFPNLSARQLGVMPDLVLDMFINGYYLNVFKTQSTDVNRPYQDKDKRGGIFDAVFTRGDQTKLLTARHDLKDKGLNEISDLIKQELTEGKALALSHTYANVRISHVINLWGADFNAEGNLEAIYVTDSDANASIGMKKYFVGVNSSGHVAISAKKIEGENIGAQVLGLFTLSSGKDIWQKLS	ng/µL	188
PRT-691 (protein) MQITTVWTKGVTPPTPEQFRYNNEDVIHAPYLPNQGWYDITKTFNGKDNLLCGAATAGNMLHWWFDQNKTEIEAYLSKYPEKQKIIFNNQELFDLRAAINTKDSQTNSQLFNYFRDKAFPNLSARQLGVMPDLVLDMFINGYYLNVFKTQSTDVNRPYQDRDKRGGIFDAVFNRGDQTTLLTARHDLKNKTLNDISTLIKQELSSGKALALSHTYANVSISHVINLWGADFNAEGNLEAIYVTDSDANASIGMKKYYVGVNAHGKVAISAKKIEGENIGAQVLGLFTLSSGKDIWQKLSLEHHHHHH	ng/µL	337
PRT-141 (protein) MRNATEAYAKEVPHQITSVWTKGVTPLTPEQFRYNNEDVIHAPYLAHQGWYDITKAFDGKDNLLCGAATAGNMLHWWFDQNKTEIEAYLSKHPEKQKIIFNNQELFDLKAAIDTKDSQTNSQLFNYFRDKAFPNLSARQLGVMPDLVLDMFINGYYLNVFKTQSTDVNRPYQDKDKRGGIFDAVFTRGDQTTLLTARHDLKNKGLNDISTIIKQELTEGRALALSHTYANVSISHVINLWGADFNAEGNLEAIYVTDSDANASIGMKKYFVGINAAGHVAISAKKIEGENIGAQVLGLFTLSSGKDIWQKLS	ng/µL	215

The record that follows has no Enzyme Activity Endpoint Assay (purified): Fc shown yet.
Per the record, PRT-63 (protein) MANQEIRYSEVTPYHVTSVWTKGVTPPANFTQGEDVFHAPYVANQGWYDITKTFNGKDDLLCGAATAGNMLHWWFDQNKEQIKRYLKEHPEKQKINFNGEQMFDVKEAIDTKNHQLDSKLFEYFKEKAFPYLSTKHLGVFPDHVLDMFINGYRLSLTNHGPTPVKEGSKDPRGGIFDDVFTRGDQSKLLTSRHDFKEKNLKEISDLIKKELTEGKALGLSHTYANVRINHVINLWGADFDSNGNLKAIYVTDSDSNASIGMKKYFVGVNSAGKVAISAKEIKEDNIGAQVLGLFTLSTGQDSWNQTN has Enzyme Activity Endpoint Assay (purified): Fc of 120
